Test system: CAL-120
Test: normalised response (% of control), CellTox Green; higher = less cell death (100 = DMSO, 0 = benzethonium chloride kill control)
Details: incubation time: 72 h
Readout: normalised response (%)
The response must be a number in % with no trailing unit.

Below, each entry is followed by its recorded normalised response result.
[[record]]
compound = "COC1=CC(c2cc3ccccc3[nH]2)=N/C1=C\\c1[nH]c(C)cc1C [Obatoclax] (10000 nM)"
readout = "normalised response"
quantity_unit = "%"
endpoint_value = 99.2

[[record]]
compound = "Cn1c(=O)c(F)c(Nc2ccc(I)cc2F)c2c(=O)n(C[C@@H](O)CO)cnc21 [TAK-733] (10 nM)"
readout = "normalised response"
quantity_unit = "%"
endpoint_value = 103

[[record]]
compound = "COc1cc(Nc2ncc(F)c(Nc3ccc4c(n3)NC(=O)C(C)(C)O4)n2)cc(OC)c1OC [Tamatinib] (10000 nM)"
readout = "normalised response"
quantity_unit = "%"
endpoint_value = 100

[[record]]
compound = "O=C(c1ccc(OCCN2CCCCC2)cc1)c1c(-c2ccc(O)cc2)sc2cc(O)ccc12 [Raloxifene] (1000 nM)"
readout = "normalised response"
quantity_unit = "%"
endpoint_value = 104

[[record]]
compound = "CS(=O)(=O)CCNCc1ccc(-c2ccc3ncnc(Nc4ccc(OCc5cccc(F)c5)c(Cl)c4)c3c2)o1 [Lapatinib] (1000 nM)"
readout = "normalised response"
quantity_unit = "%"
endpoint_value = 99.2


Task item: For CAL-120, provide normalised response of COc1cc(Nc2ncc(F)c(Nc3ccc4c(n3)NC(=O)C(C)(C)O4)n2)cc(OC)c1OC [Tamatinib] (100 nM) please.
Reply: 103

Task item: Under CAL-120: normalised response value of Nc1nccc(-c2c(-c3ccc(F)cc3)ncn2C2CCCCC2)n1 (1000 nM) ?
Reply: 107
